System: nerve cell prepared from cerebral cortex of fetus of SD rat
Assay: Measurement of nerve cell death suppressive activity
Type: cell-based
Settings: rat cerebral cortex nerve cells, LY294002 50 μM final concentration, 24 hr, viable cell number by Cell Titer Glo; read-out: IC50 value (concentration of the test compound needed for 50% inhibition of nerve cell death)
Procedure: The cerebral cortex was taken from fetus of TP-14 pregnant SD rat (CLEA Japan, Inc.), and nerve cell was prepared using nerve cell culture system (SUMITOMO BAKELITE). The cerebral cortex was placed in enzymatic solution of cell dispersion solution kit (SUMITOMO BAKELITE), and incubated at 37° C. for 30 min. The cells were suspended by pipetting, and collected by centrifugation at 1000 rpm for 5 min. The supernatant was removed, and cell dispersion solution (SUMITOMO BAKELITE) was added. […]
value_kind: pIC50
Just the number, please; pIC50 means minus log10 of the concentration in mol/L.

>>> numeric_result("O=C(Nc1c[nH]nc1C(=O)NC1CCCC1)c1cnccn1")
7.15

# query: pIC50 of entry `O=C(Nc1c[nH]nc1C(=O)Nc1ccccc1)c1cnccn1`
6.36

====

Molecular target: recombinant GSK3β enzyme (human GSK3β) (Homo sapiens)
Construct: FLAG (N)
Sequence (P49841 whole entry): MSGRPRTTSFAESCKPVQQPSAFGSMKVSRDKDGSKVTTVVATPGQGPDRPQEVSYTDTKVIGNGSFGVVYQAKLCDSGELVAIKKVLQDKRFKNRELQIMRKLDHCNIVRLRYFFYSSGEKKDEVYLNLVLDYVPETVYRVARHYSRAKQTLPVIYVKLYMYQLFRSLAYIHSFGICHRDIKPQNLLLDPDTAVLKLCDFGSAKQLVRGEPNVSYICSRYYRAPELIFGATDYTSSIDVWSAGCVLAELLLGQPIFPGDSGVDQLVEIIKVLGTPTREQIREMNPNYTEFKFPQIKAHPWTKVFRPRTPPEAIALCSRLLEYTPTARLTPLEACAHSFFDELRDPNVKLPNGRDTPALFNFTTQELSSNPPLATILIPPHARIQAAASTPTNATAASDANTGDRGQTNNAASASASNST
Assay: Measurement of GSK3β inhibitory activity
Conditions: glycogen synthase peptide substrate, Kinase Glo luminescence, read-out: IC50 (concentration of test compound needed for 50% inhibition of luminescent intensity), GSK3β inhibitory activity
Reported IC50 is given for each of the following compounds.

Would you please look over these solved cases?
>>> result("CCOCC(=O)Nc1c[nH]nc1C(=O)NCc1ccccc1 [Example 103]")
"< 100 nM"
>>> result("O=C(COc1ccccc1)Nc1c[nH]nc1C(=O)NCc1ccco1 [Example 145]")
"< 100 nM"
>>> result("O=C(Nc1c[nH]nc1C(=O)NCCc1c[nH]c2ccccc12)c1ccccn1 [Example 348]")
"< 100 nM"
>>> result("CC(C)NC(=O)c1n[nH]cc1NC(=O)c1ccc2[nH]ccc2c1 [compound 036]")
"< 100 nM"

Query compound follows.
# query: IC50 of entry CS(=O)(=O)Nc1c[nH]nc1C(=O)NC1CCCC1 [compound 227]
274 nM
